Values from ChEMBL document CHEMBL4673357

Each record here notes measured MIC.
# Test system: Escherichia coli
# Method Notes: Antibacterial activity against Escherichia coli ATCC 35218 assessed as reduction in microbial growth after 18 hrs by microbroth dilution method
# Type: functional
Answer with a number only, understood to be in µg/mL.

INSERT INTO results (sample_smiles, unit_descriptor, obs_value) VALUES
  ('CCCC1=C(C(=O)OC)C(=O)[C@@](C)(/C=C/CC[C@@H](C)O)O1', 'µg/mL', 3);

State its MIC for this molecule: "CN[C@@H]1[C@H](O[C@H]2[C@H](O[C@H]3[C@H](O)[C@@H](O)[C@H](N=C(N)N)[C@@H](O)[C@@H]3N=C(N)N)O[C@@H](C)[C@]2(O)C=O)O[C@@H](CO)[C@H](O)[C@H]1O"
2.3

State its MIC for this molecule: "CCCC1=C(C(=O)OC)C(=O)[C@@](C)(/C=C/C=C/[C@@H](C)O)O1"
2.9

State its MIC for this molecule: "CCCC1=C(C(=O)OC)C(=O)[C@@](C)(/C=C/CC[C@H](C)O)O1"
3

State its MIC for this molecule: "COC(=O)C1=C(C)O[C@](C)(/C=C/CC[C@H](C)O)C1=O"
5.4

State its MIC for this molecule: "COC(=O)C1=C(c2ccsc2C)O[C@](C)(/C=C/C=C/[C@H](C)O)C1=O"
7
